# Test system: FLT1
# runConditions: concentration: 1 μM, replicates: in singlicate; n = 1;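 further: KINOMEscan kinase panel screen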
The following compounds are listed with their measured %Inh values.
readoutLabel: %Inh (%)

compound: Cn1cc(-c2ccc3c(c2)CCN3C(=O)Cc2cccc(C(F)(F)F)c2)c2c(N)ncnc21 [GSK2606414]
unitName: %
recordedNumber: 31
//
compound: Nc1nc(-c2ccc3c(N)n[nH]c3c2)cc(N2CCC[C@@H](C(=O)Nc3ccccc3)C2)n1.O=C(O)C(F)(F)F.O=C(O)C(F)(F)F [GSK2288359]
unitName: %
recordedNumber: 6
//
compound: Cc1ccc(C)c(NC(=O)NCCNc2ccnc(Nc3ccc(F)cc3)n2)c1 [GSK1379878]
unitName: %
recordedNumber: 24
//
compound: Cc1ccc(O)cc1Nc1cc(C(F)(F)F)nc2ccc(-c3ccncc3)cc12 [GW630823]
unitName: %
recordedNumber: 14
//
compound: Cc1cc(N2CCC(NS(=O)(=O)c3ccc(F)cc3)CC2)nc(Nc2cccc(C#N)c2)n1.O=C(O)C(F)(F)F [GSK1653537]
unitName: %
recordedNumber: 35
//
compound: CNc1nccc(-c2c(-c3ccc(F)cc3)ncn2CCCN2CCOCC2)n1 [SB-222516]
unitName: %
recordedNumber: 1

----------
The following compounds are listed with their measured %Inh values.
# Test system: FLT3-autoinhibited
# runConditions: concentration: 1 μM, replicates: in singlicate; n = 1

smilesString: COc1ccc(NC(=O)Nc2ccc(C)c(-c3ccc(C(=O)Nc4ccncc4)cc3)c2)cc1
%Inh: 0%
--
smilesString: CN1CCC(n2cnc(-c3ccc(F)cc3)c2-c2ccnc(NC3CCNCC3)n2)CC1
%Inh: 0%
--
smilesString: Fc1cccc(COc2ccc(Nc3ncnc4sc(-c5ccc[nH]5)cc34)cc2Cl)c1
%Inh: 7%
--
smilesString: Cl.O=S(=O)(c1cccc(F)c1)c1ccc(Nc2ncnc3cc(Br)sc23)cc1Cl
%Inh: 0%
--
smilesString: CSc1nn2c(=O)cc(N3CCOCC3)nc2n1Cc1cccc(Cl)c1Cl
%Inh: 0%
--
smilesString: COc1cc2ncnc(Nc3ccc(OCc4ccccc4Br)c(Cl)c3)c2cc1OC.Cl
%Inh: 0%
--
smilesString: COc1cc2c(Nc3cccc(NC(=O)c4ccccc4)c3)ncnc2cc1OCCCN1CCOCC1
%Inh: 0%
--
smilesString: Fc1ccc(-c2ncn(CCCNCc3ccccc3)c2-c2ccncc2)cc1
%Inh: 0%
--
smilesString: Cc1ccc(O)cc1Nc1cc(C(F)(F)F)nc2ccc(-c3ccncc3)cc12
%Inh: 0%
--
smilesString: CS(=O)(=O)CCNCc1nc(-c2ccc3ncnc(Nc4ccc(OCc5cccc(F)c5)c(Cl)c4)c3c2)cs1.Cl
%Inh: 0%
--
smilesString: Nc1n[nH]c2nnc(-c3ccccc3)cc12
%Inh: 1%
--
smilesString: FC(F)(F)c1ccc(-c2cc(-c3c[nH]nc3-c3ccccn3)ccn2)cc1
%Inh: 0%
--
smilesString: Cc1ccc(C)c(NC(=O)NCCNc2ccnc(Nc3ccc(F)cc3)n2)c1
%Inh: 0%
--
smilesString: Cl.Cn1ccc(-c2cccc(Nc3ccnc4cc(-c5nccs5)ccc34)c2)n1
%Inh: 0%
--
smilesString: CCc1nc(-c2cccc(C)c2)c(-c2ccnc(NC(=O)c3ccccc3)c2)s1
%Inh: 1%

----------
The following compounds are listed with their measured %Inh values.
# System: SBK1
# runConditions: concentration: 1 μM, replicates: in singlicate; n = 1
readoutLabel: %Inh (%)

compound: O=C(Nc1ccccc1F)NC1CCN(c2ccnc(Nc3ccc(F)cc3)n2)C1 (stereo not drawn)
recordedNumber: 21

compound: Fc1ccc(Nc2nccc(-c3c(-c4ccc(Cl)cc4)nn4ncccc34)n2)cc1F
recordedNumber: 43

compound: Nc1nc(-c2ccccn2)c(-c2ccnc3ccccc23)s1
recordedNumber: 0

compound: CNc1nccc(-c2c(-c3ccc(F)cc3)ncn2C2CCN(C)CC2)n1
recordedNumber: 0

compound: COc1ccc(-c2oc3ncnc(N)c3c2-c2ccc(OC)cc2)cc1
recordedNumber: 0

compound: CC(C)N1CCC(n2cnc(-c3ccc(F)cc3)c2-c2ccnc(N)n2)CC1
recordedNumber: 0

compound: Fc1cccc(COc2ccc(Nc3ncnc4nn5ccccc5c34)cc2Cl)c1
recordedNumber: 2

compound: COC(=O)c1cccc(NC(=O)NCCNc2ccnc(Nc3ccc(F)cc3)n2)c1
recordedNumber: 3

compound: Cc1ccc(NC(=O)c2cccc(C#N)c2)cc1-c1ccc(C(=O)Nc2ccncc2)cc1
recordedNumber: 0

compound: Nc1nc(-c2ccc3c(N)n[nH]c3c2)cc(N2CCC[C@@H](C(=O)Nc3ccccc3)C2)n1.O=C(O)C(F)(F)F.O=C(O)C(F)(F)F
recordedNumber: 0

compound: C[C@H]1CC[C@@H](C(=O)Nc2ccccc2)CN1c1cc(-c2ccc3c(N)n[nH]c3c2)nc(N)n1
recordedNumber: 9

compound: c1ccc(-c2ccc3c(-c4ccnc(Nc5ccc6c(c5)OCCO6)n4)cnn3n2)cc1
recordedNumber: 7

compound: CCc1nc(-c2cccc(C)c2)c(-c2ccnc(NC(=O)c3ccccc3)c2)s1
recordedNumber: 5

compound: Cl.Cl.c1ccc(-c2cc3ccncc3cc2OC2CCNCC2)cc1
recordedNumber: 12

compound: N#Cc1ccc(Oc2ccc(Nc3ncnc4cc[nH]c34)cc2Cl)cc1
recordedNumber: 27

----------
The following compounds are listed with their measured %Inh values.
# Tested on: ROS1
# runConditions: concentration: 1 μM, replicates: in singlicate; n = 1

compound: FC(F)(F)c1ccc(-c2cc(-c3c[nH]nc3-c3ccccn3)ccn2)cc1
testedSystem: ROS1
unitName: %
%Inh: 31

compound: c1ccc(-c2ccc3c(-c4ccnc(Nc5ccc6c(c5)OCCO6)n4)cnn3n2)cc1
testedSystem: ROS1
unitName: %
%Inh: 5

compound: CNc1nccc(-c2c(-c3ccc(F)cc3)ncn2C2CCN(C)CC2)n1
testedSystem: ROS1
unitName: %
%Inh: 0

compound: Nc1nc(-c2ccc3c(N)n[nH]c3c2)cc(N2CCCCC2)n1
testedSystem: ROS1
unitName: %
%Inh: 6

compound: FC(F)(F)c1ccc(-c2nn3ncccc3c2-c2ccnc(Nc3cccc(C(F)(F)F)c3)n2)cc1
testedSystem: ROS1
unitName: %
%Inh: 0

compound: Cn1cc(-c2ccc3c(c2)CCN3C(=O)Cc2cccc(C(F)(F)F)c2)c2c(N)ncnc21
testedSystem: ROS1
unitName: %
%Inh: 0

compound: CN1CCC(n2cnc(-c3ccc(F)cc3)c2-c2ccnc(NC3CCNCC3)n2)CC1
testedSystem: ROS1
unitName: %
%Inh: 0

compound: O=C(NCCCN1CCCC1=O)c1cnc(NCc2cc(Cl)ccc2Cl)nc1NC1CCNCC1
testedSystem: ROS1
unitName: %
%Inh: 0

compound: Cc1ccc(C)c(NC(=O)NCCNc2ccnc(Nc3ccc(F)cc3)n2)c1
testedSystem: ROS1
unitName: %
%Inh: 16

compound: Fc1cccc(COc2ccc(Nc3ncnc4sc(-c5ccc[nH]5)cc34)cc2Cl)c1
testedSystem: ROS1
unitName: %
%Inh: 8

compound: Cn1ccc2ncnc(Oc3ccc(NC(=O)Nc4cccnc4)c(Cl)c3)c21
testedSystem: ROS1
unitName: %
%Inh: 0

compound: Nc1nc(-c2ccccn2)c(-c2ccnc3ccccc23)s1
testedSystem: ROS1
unitName: %
%Inh: 1

compound: Nc1n[nH]c2nnc(-c3ccccc3)cc12
testedSystem: ROS1
unitName: %
%Inh: 0

compound: CCn1c(-c2ccncc2)nc2cnccc21
testedSystem: ROS1
unitName: %
%Inh: 2

compound: O=C(Nc1ccccc1F)NC1CCN(c2ccnc(Nc3ccc(F)cc3)n2)C1 (centres unmarked)
testedSystem: ROS1
unitName: %
%Inh: 22

compound: CN1c2ccc(-c3ccc(C(=O)NCCO)cc3)cc2-c2[nH]ncc2S1(=O)=O
testedSystem: ROS1
unitName: %
%Inh: 8

compound: CCc1nc(-c2cccc(N(C)S(=O)(=O)c3ccccc3)c2)c(-c2ccnc(Nc3ccc(N4CCN(C(C)=O)CC4)nc3)n2)s1
testedSystem: ROS1
unitName: %
%Inh: 0

compound: Clc1ccc(-c2cc(-c3c[nH]nc3-c3ccccn3)ccn2)cc1
testedSystem: ROS1
unitName: %
%Inh: 0

compound: COC(=O)c1c(-c2ccccc2)c2cc(Cl)ccc2c(=O)n1Cc1ccc(S(C)(=O)=O)cc1
testedSystem: ROS1
unitName: %
%Inh: 0

compound: O=C(c1ccc(-c2cc(-c3c[nH]nc3-c3ccccn3)ccn2)cc1)N1CCCC1
testedSystem: ROS1
unitName: %
%Inh: 0

compound: Clc1cccc(-c2nc(Nc3ccncc3)c3ccccc3n2)c1
testedSystem: ROS1
unitName: %
%Inh: 20

compound: Cl.c1ccc(Cn2ncc3cc(Nc4ncnc5ccccc45)ccc32)cc1
testedSystem: ROS1
unitName: %
%Inh: 10

compound: COC(=O)c1cccc(NC(=O)NCCNc2ccnc(Nc3ccc(F)cc3)n2)c1
testedSystem: ROS1
unitName: %
%Inh: 17

----------
# System: MST3
# Construct: gene STK24
# runConditions: concentration: 1 μM, replicates: in singlicate; n = 1

compound: Cl.Fc1ccccc1COc1ccc(Nc2ncnc3ccc(-c4nnc(C(F)(F)F)o4)cc23)cc1Cl [GW424170]
%Inh: 0%
//
compound: O=C(c1ccc(-c2cc(-c3c[nH]nc3-c3ccccn3)ccn2)cc1)N1CCCC1 [GW792479]
%Inh: 11%
//
compound: CCn1c(-c2ccncc2)nc2cnccc21 [SB-735216]
%Inh: 0%
